Readings of IC50 for the listed compounds
assay system: α-glucosidase
assay protocol: α-Glucosidase inhibitory assay
test settings: means ± S.D. (n = 3)
reported endpoint: IC50 (µM)

# mol smiles, output unit, measured
rows = [
    ("COc1cc(CNC(=O)CCCC/C=C/C(C)C)ccc1O", "µM", 13),
    ("CC/C=C\\C/C=C\\C/C=C\\C/C=C\\C/C=C\\C/C=C\\CCC(=O)O", "µM", 268),
    ("CC/C=C\\C/C=C\\C/C=C\\C/C=C\\C/C=C\\CCCC(=O)O", "µM", 250),
]

====

assay protocol: ABTS assay
test settings: means ± S.D. (n = 3); NA: not active at maximum concentration tested; read-out: ABTS Test IC50
Description: The ABTS assay was performed according to a previously reported protocol. Absorbance was measured at 734 nm using a UV-Vis spectrophotometer (model V-550, Jasco, Milan, Italy) Ascorbic acid was used as positive control.
pIC50: −log10 of the molar value.
Examples of molecules with documented pIC50 follow.

# molecule, pIC50
records = [
    ("CC/C=C\\C/C=C\\C/C=C\\C/C=C\\C/C=C\\CCCC(=O)NCc1ccc(O)c(OC)c1 [EPVA, N-eicosapentaenoyl vanillylamine]", 6.70),
    ("O=C1O[C@H]([C@@H](O)CO)C(O)=C1O [Ascorbic acid]", 5.02),
    ("CC/C=C\\C/C=C\\C/C=C\\C/C=C\\C/C=C\\C/C=C\\CCC(=O)NCc1ccc(O)c(OC)c1 [DHVA, N-docosahexaenoyl vanillylamine]", 6.52),
    ("COc1cc(CNC(=O)CCCC/C=C/C(C)C)ccc1O [Capsaicin, capsaicin]", 6.52),
]

====

assay system: α-glucosidase
assay protocol: α-Glucosidase inhibitory assay
test settings: calculated following the Cheng–Prusoff equation
Known Ki of a selection of molecules
reported endpoint: Ki (µM)

# molecule, assay system, reported endpoint, measured
records = [
    ("COc1cc(CNC(=O)CCCC/C=C/C(C)C)ccc1O [Capsaicin, capsaicin]", "α-glucosidase", "Ki", 1),
    ("CC/C=C\\C/C=C\\C/C=C\\C/C=C\\C/C=C\\CCCC(=O)O [EPA, eicosapentaenoic acid]", "α-glucosidase", "Ki", 10),
    ("CC/C=C\\C/C=C\\C/C=C\\C/C=C\\C/C=C\\C/C=C\\CCC(=O)NCc1ccc(O)c(OC)c1 [DHVA, N-docosahexaenoyl vanillylamine]", "α-glucosidase", "Ki", 2),
    ("CC/C=C\\C/C=C\\C/C=C\\C/C=C\\C/C=C\\CCCC(=O)NCc1ccc(O)c(OC)c1 [EPVA, N-eicosapentaenoyl vanillylamine]", "α-glucosidase", "Ki", 2),
    ("CC/C=C\\C/C=C\\C/C=C\\C/C=C\\C/C=C\\C/C=C\\CCC(=O)O [DHA, docosahexaenoic acid]", "α-glucosidase", "Ki", 10),
]
